The following binders are listed with their measured pKd values.
target: T1, recombinant human CDCP1 ECD (AA30-667) with C-terminal His tag (human, UniProt Q9H5V8 30-667); assay: Octet BLI, Ab on Protein A sensor, recombinant CDCP1 analyte;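 further: antibody captured for 120 s on the sensor, followed by 300 s association with CDCP1 and a 300–600 s dissociation phase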
T1 construct: range 30-667; also called FL-ECD; recombinant FL-ECD
Lab note — pKd values are minus log10 of concentrations in M.

[[record]]
binder = "3B11 (antibody, human IgG1, V domains shown, also called 03B11; 3B111) VH: QVQLQQWDAGLLKPSETLSLTCAVYGGSFSSYYWSWIRQPPGKGLEWIGEINHSGSTSYNPSLKSRVTISIDTSKNQFSLKLNSMTAADTAVYFCAASPYFDYWGQGTLVTVSS VL: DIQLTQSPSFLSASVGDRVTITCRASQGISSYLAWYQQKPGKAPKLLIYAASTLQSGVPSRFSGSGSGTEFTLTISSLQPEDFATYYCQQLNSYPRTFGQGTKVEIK"
observed_value = 7.22


The value of pKd measured for the binder 38E11 (antibody, human IgG1, V domains shown, also called human antibody 38E11) VH: EVQLLESGGGLVQPGGSLRLSCAASGFTFSNYAMNWVRQAPGKGLEWVSAISGGGGSTYYADSVKGRFTISRDNSKNTLYLQMNSLRAEDTAVYYCAKESITMVRGVMDYYGMDVWGQGTTVTVSS VL: DIQLTQSPSFLSASVGDRVTITCRASQGISSYLAWYQQKPGKAPKLLIYAASTLQGGVPSRFSGSGSGTEFTLTISSLQPEDFATYYCQHLNRFPRTFGQGTKVEIK turned out to be 8.70
